Give measured IC50 for each item. Keep answers brief.
- testedTarget: 4-hydroxyphenylpyruvate dioxygenase (Homo sapiens, UniProt P32754)
- Sequence (P32754 whole entry): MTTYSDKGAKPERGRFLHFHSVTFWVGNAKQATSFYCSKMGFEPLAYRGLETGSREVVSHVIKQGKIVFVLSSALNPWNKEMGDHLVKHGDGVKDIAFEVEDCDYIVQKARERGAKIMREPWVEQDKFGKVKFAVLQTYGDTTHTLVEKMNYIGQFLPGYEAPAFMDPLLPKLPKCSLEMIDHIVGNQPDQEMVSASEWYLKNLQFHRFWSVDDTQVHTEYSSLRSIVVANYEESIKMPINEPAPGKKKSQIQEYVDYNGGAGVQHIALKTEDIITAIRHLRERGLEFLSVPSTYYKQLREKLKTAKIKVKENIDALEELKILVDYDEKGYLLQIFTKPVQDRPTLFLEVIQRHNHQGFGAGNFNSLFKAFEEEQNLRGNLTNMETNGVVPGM
- experimentDescription: Inhibition of human recombinant His-tagged HPPD expressed in Escherichia coli BL21(DE3) by UV/visible plate reader analysis
Field note: include the unit after the figure.

These solved cases illustrate the format of a correct answer.
1) CCCCn1c(=O)n(C)c2ccc(C(=O)c3cnn(C)c3O)cc21; 170 nM
2) Cc1ccc(-n2c(=O)n(C)c3ccc(C(=O)c4cnn(C)c4O)cc32)cc1; 250 nM
3) Cc1nn(C)c(O)c1C(=O)c1ccc2c(c1)n(CC(C)C)c(=O)n2C; 2710 nM
4) Cc1nn(C)c(O)c1C(=O)c1ccc2c(c1)n(Cc1ccccc1)c(=O)n2C; 670 nM
5) Cn1ncc(C(=O)c2ccc3c(c2)n(C(C)(C)C)c(=O)n3C)c1O; 100 nM

Could you now look at the following compound, please?
(Q) Answer with the recorded IC50 for the compound listed here: CCCn1c(=O)n(CC)c2cc(C(=O)c3cnn(C)c3O)ccc21
(A) 39 nM
